Biological target: T1, his-tagged human CDH6 extracellular region protein (hCDH6 ECD-his) (human, UniProt P55285 19-615)
T1 construct: also called Human CDH6-his; hCDH6-his; not shown: his tag
T1 sequence: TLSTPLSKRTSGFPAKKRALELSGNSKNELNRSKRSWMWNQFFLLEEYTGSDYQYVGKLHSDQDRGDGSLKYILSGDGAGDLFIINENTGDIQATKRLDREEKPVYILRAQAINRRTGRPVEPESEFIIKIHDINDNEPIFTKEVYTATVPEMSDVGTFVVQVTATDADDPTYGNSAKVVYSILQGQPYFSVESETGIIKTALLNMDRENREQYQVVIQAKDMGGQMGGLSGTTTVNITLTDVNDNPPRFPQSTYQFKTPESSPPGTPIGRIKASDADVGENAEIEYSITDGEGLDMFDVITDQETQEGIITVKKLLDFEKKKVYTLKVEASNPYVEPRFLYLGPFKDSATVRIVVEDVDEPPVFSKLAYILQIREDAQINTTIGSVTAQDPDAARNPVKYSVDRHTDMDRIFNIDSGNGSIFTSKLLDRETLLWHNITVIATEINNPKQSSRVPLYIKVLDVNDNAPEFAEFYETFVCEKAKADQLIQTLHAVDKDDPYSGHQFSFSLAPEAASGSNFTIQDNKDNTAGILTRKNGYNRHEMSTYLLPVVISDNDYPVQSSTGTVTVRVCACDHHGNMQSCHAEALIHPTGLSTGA
Experiment: SPR Biacore 8K, antibody captured on Protein A
observable: log10(kon) (log10 of the value in M⁻¹ s⁻¹)

binder | log10(kon)
CHI-CDH6-1 (antibody, human IgG1, kappa, V domains shown, also called CHI-hCDH6-1; CH1-CDH6-1) VH: QVQLQQPGAELVRPGSSVKLSCKASGYTFTNYWMHWVKQRPIEGLEWIGDIDPSHSETHYTQKFKDKATLTVDKSSSTAYMQLSSLTSEDSAVYYCARGDLGRFDYWGQGTTLTVSS VL: DIVLTQSPASLAVSLGQRATISCRASESVSIHGTHLMHWYQQKSGQPPKLLIYAASNLESGVPARFSGSGSETDFTFNIHPVEEEDAATYFCQQSFEDPWTFGGGTKLEIKR | 5.82
CHI-CDH6-9 (antibody, human IgG1, kappa, V domains shown, also called chimeric antibody of murine CDH6-9) VH: QVQLQQPGAELVKPGASVKLSCKASGYTFTGYWMHWVRQRPGQGLEWIGEINPNNGGTNCNEQFKNKATLTVDKSSSTAYMQLSSLTSEDSAVFYCTISFGNYLFFDVWGAGTTVTVSS VL: DIQMTQSPASLAASVGETITITCQASENIYFSLAWYQQKQGKSPQLLIYNANTLEDGVPSRFVGSGSGTQYSMKINSIQPEDTATYFCDQTYDFPWTFGGGTKLEIKR | 4.06
CHI-CDH6-13 (antibody, human IgG1, kappa, V domains shown, also called chimeric antibody of murine CDH6-13) VH: DVQLQESGPGLVKPSQSLSLTCSVTGYSITKDSYWNWIRQFPGSKLEWMGFISYDGSRHYNPSLKNRISITRDTSKNQFFLQLNSVTTEDTATYYCARRDYADYWGQGTTLTVSS VL: QIVLTQSPALMSAFPGEKVTMTCSATSSVSYIYWYQQKPRSSPKPWIYLTSNLASGVPARFSGSGSGTSYSLTINSLEAEDAATYYCQQWSSIPYTFGGGTKLEIKR | 4.37
CHI-CDH6-11 (antibody, human IgG1, kappa, V domains shown, also called chimeric antibody of murine CDH6-11) VH: QIQLQQSGPELVKPGASVRISCKASGYTFTDYYITWVKLRPGQGLEWIGWIYPGSVNIKYNEKFKGKATLTVDTSSSTAYMQLNSLTSEDSAVYFCARGGYSWFPYWGQGTLVTVSA VL: NIVMTQSPKSMSMSVGERVTLSCKASENVHTYVSWYQQKPEQSPKLLFYGASTRNTGVPDRFTGSGSATDFTLTISSVQAEDLADYYCGQSYSYPYTFGSGTKLEIKR | 4.55
CHI-CDH6-10 (antibody, human IgG1, kappa, V domains shown, also called chimeric antibody of murine CDH6-10) VH: QVQLQQPGAELVKPGTSVKMSCKASGYTFTSDWIAWVKQRPGQGLEWIGDIYPGSGRTHNNEKFNFKATLTVDTSSNTAYMQLSSLTSEDSAVYFCARPMLGRFDYWGQGTTLTVSS VL: DIVLTQSPASLAVSLGQRATISCRASESVSIHGTHLMHWYQQKPGQPPKLLIYAASNLESGVPARFSGSGSETDFTLNIHPVEEEDAATYFCQQSFEDPFTFGSGTKLEIKR | 5.25
NOV0712 (antibody, human IgG1, kappa, V domains shown, Positive control, variable regions from WO2018212136A1; also called positive control anti-human CDH6 antibody) VH: QVQLLESGGGLVQPGGSLRLSCAASGFTFSSHGMHWVRQAPGKGLEWVSVISGSGSNTGYADSVKGRFTISRDNSKNTLYLQMNSLRAEDTAVYYCARQWGSYAFDSWGQGTLVTVSS VL: DIQMTQSPSSLSASVGDRVTITCRASQSISSYLNWYQQKPGKAPKLLIYAVSTLQSGVPSRFSGSGSGTDFTLTISSLQPEDFATYYCQQSGTFPPTTFGQGTKVEIKR | 4.70
